Target: T1, human GIP receptor (human, UniProt P48546 22-466)
T1 construct: whole, on cells; also called hGIPR; hGIP-R
T1 sequence (looked up): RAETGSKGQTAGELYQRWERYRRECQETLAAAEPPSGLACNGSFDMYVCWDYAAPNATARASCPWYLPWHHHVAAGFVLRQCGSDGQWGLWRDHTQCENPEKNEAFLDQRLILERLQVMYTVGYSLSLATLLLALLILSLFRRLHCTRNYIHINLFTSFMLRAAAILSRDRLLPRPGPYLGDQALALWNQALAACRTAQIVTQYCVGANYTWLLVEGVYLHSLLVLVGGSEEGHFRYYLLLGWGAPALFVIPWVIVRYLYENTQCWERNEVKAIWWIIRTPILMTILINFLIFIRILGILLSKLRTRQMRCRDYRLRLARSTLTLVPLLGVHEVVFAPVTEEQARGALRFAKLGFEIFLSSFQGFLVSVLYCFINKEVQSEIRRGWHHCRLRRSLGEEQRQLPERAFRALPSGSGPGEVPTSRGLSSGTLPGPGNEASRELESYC
Assay: [125I]-GIP competition SPA, hGIPR membranes
Below, each entry is listed alongside its reported Ki.
All answers are understood in nM, so give the number only.

binder: YXEGTFTSDYSIXLDKKAQXAFIEYLIEGGPSSG (Aib2; αMeL13; K17((2-[2-(2-Amino-ethoxy)-ethoxy]-acetyl)2-(γ-Glu)-CO-(CH2)16-CO2H); Aib20; C-terminal NH2) [Example 300]
Ki, nM: 0.0504
--
binder: YXEGTXTSDLSIXLDXKAQXAFIXXLIEGGPSSGAPPPS (Aib2; αMeF(2F)6; αMeL13; Orn16; K17((2-[2-(2-Amino-ethoxy)-ethoxy]-acetyl)2-(γ-Glu)-CO-(CH2)16-CO2H); Aib20; D-Glu24; αMeY25; C-terminal NH2) [Example 244]
Ki, nM: 0.0308
--
binder: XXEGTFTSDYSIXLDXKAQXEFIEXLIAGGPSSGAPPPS (D-Tyr1; Aib2; αMeL13; Orn16; K17((2-[2-(2-Amino-ethoxy)-ethoxy]-acetyl)2-(γ-Glu)-CO-(CH2)18-CO2H); Aib20; αMeY25; C-terminal NH2) [Example 293]
Ki, nM: 0.0775
--
binder: YXEGTXTSDYSIXLDKKAQXEFIXYLIEGGPSSG (Aib2; αMeF6; αMeL13; K17((2-[2-(2-Amino-ethoxy)-ethoxy]-acetyl)2-(γ-Glu)-CO-(CH2)18-CO2H); Aib20; D-Glu24; C-terminal NH2) [Example 228]
Ki, nM: 0.028
--
binder: YXEGTFTSDYSIXLDEKAQXAFIXYLIAGGPSSGAPPPS (Aib2; αMeL13; K17((2-[2-(2-Amino-ethoxy)-ethoxy]-acetyl)2-(γ-Glu)-CO-(CH2)18-CO2H); Aib20; D-Glu24; C-terminal NH2) [Example 343]
Ki, nM: 0.0374
--
binder: YXEGTXTSDYSIXLDKKAQXEFIXYLIEGGPSSGAPPPS (Aib2; αMeF(2F)6; αMeL13; K17((2-[2-(2-Amino-ethoxy)-ethoxy]-acetyl)2-(γ-Glu)-CO-(CH2)16-CO2H); Aib20; D-Glu24; C-terminal NH2) [Example 231]
Ki, nM: 0.0394

// Ki lookup, binder = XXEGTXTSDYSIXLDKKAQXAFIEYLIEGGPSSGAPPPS (D-Tyr1; Aib2; αMeF6; αMeL13; K17((2-[2-(2-Amino-ethoxy)-ethoxy]-acetyl)2-(γ-Glu)-CO-(CH2)18-CO2H); Aib20; C-terminal NH2) [Example 335] , result: 0.0444

// Ki lookup, binder = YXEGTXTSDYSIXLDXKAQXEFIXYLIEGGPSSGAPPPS (Aib2; αMeF(2F)6; αMeL13; Dap16; K17((2-[2-(2-Amino-ethoxy)-ethoxy]-acetyl)2-(γ-Glu)-CO-(CH2)18-CO2H); Aib20; D-Glu24; C-terminal NH2) [Example 218] , result: 0.0593

// Ki lookup, binder = XXEGTFTSDYSIXLDXKAQXEFVEYLIAGGPSSGAPPPS (D-Tyr1; Aib2; αMeL13; Orn16; K17((2-[2-(2-Amino-ethoxy)-ethoxy]-acetyl)2-(γ-Glu)-CO-(CH2)18-CO2H); Aib20; C-terminal NH2) [Example 359] , result: 0.0874

// Ki lookup, binder = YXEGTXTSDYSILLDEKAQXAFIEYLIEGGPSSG (Aib2; αMeF6; K17((2-[2-(2-Amino-ethoxy)-ethoxy]-acetyl)2-(γ-Glu)-CO-(CH2)16-CO2H); Aib20; C-terminal NH2) [Example 307] , result: 0.0773
